- system: Recombinant ROCK1 (amino acids 1-477) (Homo sapiens, UniProt Q13464)
- Construct: Recombinant ROCK1 (amino acids 1-477); by word order, ROCK1 from Carna Biosciences
- Sequence (Q13464 1-477): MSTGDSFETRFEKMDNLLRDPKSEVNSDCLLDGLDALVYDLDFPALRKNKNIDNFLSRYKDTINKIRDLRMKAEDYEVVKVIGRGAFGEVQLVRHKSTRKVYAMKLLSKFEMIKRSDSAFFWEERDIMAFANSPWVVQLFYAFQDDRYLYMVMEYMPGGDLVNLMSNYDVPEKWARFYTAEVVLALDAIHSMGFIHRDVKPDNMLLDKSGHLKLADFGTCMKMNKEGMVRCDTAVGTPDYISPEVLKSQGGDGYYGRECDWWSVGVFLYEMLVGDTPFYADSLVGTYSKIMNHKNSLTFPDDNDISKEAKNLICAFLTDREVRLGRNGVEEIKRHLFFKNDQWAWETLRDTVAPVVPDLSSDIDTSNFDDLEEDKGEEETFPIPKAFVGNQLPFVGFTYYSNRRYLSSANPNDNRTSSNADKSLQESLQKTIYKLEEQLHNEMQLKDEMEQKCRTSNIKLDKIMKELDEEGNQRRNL
- experiment: ROCK inhibition assay, LANCE Ultra TR-FRET kinase assay (ROCK1)
- Type: biochemical
- condition_parameters: 1 μM ATP, 50 nM ULight-CREBtide substrate
pIC50: −log10 of the molar value.
reported_metric: pIC50

Asked: Could you tell me which pIC50 is on file for Cc1n[nH]cc1-c1ccc2c(=O)n(Cc3cccc(C(=O)NCCc4ccccn4)c3)ccc2c1 ?
Given back: > 8.00

The following compounds each have a reported value; give each one's pIC50.
1. CNC(=O)c1cccc(Cn2ccc3cc(-c4cn[nH]c4Br)ccc3c2=O)c1
2. CNC(=O)c1cccc(Cn2ccc3cc(-c4cc[nH]c4)ccc3c2=O)c1
3. CNC(=O)c1cccc([C@@H](C)n2cnc3cc(-c4cn[nH]c4OC)ncc3c2=O)c1

Given back:
1. 7.00 to 7.96
2. 6.30 to 7.00
3. 7.00 to 7.96

###

- system: Recombinant ROCK1 (amino acids 1-477) (Homo sapiens, UniProt Q13464)
- Construct: Recombinant ROCK1 (amino acids 1-477); by word order, ROCK1 from Carna Biosciences
- experiment: ROCK inhibition assay, LANCE Ultra TR-FRET kinase assay (ROCK1)
- Format: biochemical
- condition_parameters: 1 μM ATP, 50 nM ULight-CREBtide substrate
pIC50: −log10 of the molar value.
reported_metric: pIC50

Asked: Could you tell me which pIC50 is on file for Cc1nocc1-c1ccc2c(=O)n(Cc3cccc(C(=O)NC4CCN(CC(F)(F)F)CC4)c3)ccc2c1 [Compound 87] ?
Given back: 7.00 to 7.96

Asked: Could you tell me which pIC50 is on file for CNC(=O)c1cc(F)cc(Cn2ccc3cc(-c4cn[nH]c4C(F)(F)F)ncc3c2=O)c1 [Compound 246] ?
Given back: 7.00 to 7.96

Asked: Could you tell me which pIC50 is on file for CN(C)CCNC(=O)c1cccc(Cn2ccc3cc(-c4ccnn4C)ccc3c2=O)c1 [Compound 119] ?
Given back: 7.00 to 7.96

Asked: Could you tell me which pIC50 is on file for Cc1n[nH]cc1-c1ccc2c(=O)n(Cc3cccc(O)c3)ccc2c1 [Compound 5] ?
Given back: 6.30 to 7.00

Asked: Could you tell me which pIC50 is on file for CC(C)NC(=O)c1cccc(Cn2ccc3cc(-c4cn[nH]c4)ccc3c2=O)c1 [Compound 28] ?
Given back: 6.30 to 7.00

The following compounds each have a reported value; give each one's pIC50.
1. C[C@H](c1cccc(C(=O)NC2CCOCC2)c1)n1cnc2cc(-c3cn[nH]c3C(F)(F)F)ccc2c1=O [Compound 449]
2. CC(O)c1cn(Cc2cccc(C(=O)NCCN(C)C)c2)c(=O)c2ccc(-c3c[nH]nc3Cl)cc12 (stereo not shown) [Compound 542]
3. Cc1nocc1-c1ccc2c(=O)n(Cc3cccc(C(=O)NCCN4CCOCC4)c3)cnc2c1 [Compound 420]
4. O=C(NCC1CCNCC1)c1cccc(Cn2ccc3cc(N4CCOCC4)ccc3c2=O)c1 [Compound 217]
5. CNC(=O)c1cccc(Cn2cc(CCO)c3cc(-c4cn[nH]c4Cl)ccc3c2=O)c1 [Compound 550]
6. Cc1nocc1-c1ccc2c(=O)n(Cc3cccc(C(=O)NC4COC4)c3)ccc2c1 [Compound 146]

Given back:
1: 7.00 to 7.96; 2: > 8.00; 3: 7.00 to 7.96; 4: 6.30 to 7.00; 5: 7.00 to 7.96; 6: 6.30 to 7.00

The following compounds each have a reported value; give each one's pIC50.
1. C[C@H](c1cccc(C(=O)NCc2ccc(F)nc2)c1)n1cnc2cc(-c3cn[nH]c3Br)ccc2c1=O [Compound 516]
2. Cn1nccc1-c1ccc2c(=O)n(Cc3cccc(C(=O)NCC4CCNCC4)c3)ccc2c1 [Compound 169]
3. CNC(=O)c1cccc(Cn2cc(CCN(C)C)c3cc(-c4c[nH]nc4N)ccc3c2=O)c1 [Compound 567]
4. CC(C)NC(=O)c1cc(F)cc(Cn2ccc3cc(-c4c[nH]nc4Br)ncc3c2=O)c1 [Compound 272]

Given back:
["> 8.00", "> 8.00", "7.00 to 7.96", "> 8.00"]

Asked: Could you tell me which pIC50 is on file for CNC(=O)c1cccc([C@@H](C)n2cnc3cc(-c4cn[nH]c4C(F)(F)F)ncc3c2=O)c1 [Compound 568] ?
Given back: 7.00 to 7.96
